assayed.target: Maternal embryonic leucine zipper kinase (Homo sapiens, UniProt Q14680)
Sequence (Q14680 whole entry): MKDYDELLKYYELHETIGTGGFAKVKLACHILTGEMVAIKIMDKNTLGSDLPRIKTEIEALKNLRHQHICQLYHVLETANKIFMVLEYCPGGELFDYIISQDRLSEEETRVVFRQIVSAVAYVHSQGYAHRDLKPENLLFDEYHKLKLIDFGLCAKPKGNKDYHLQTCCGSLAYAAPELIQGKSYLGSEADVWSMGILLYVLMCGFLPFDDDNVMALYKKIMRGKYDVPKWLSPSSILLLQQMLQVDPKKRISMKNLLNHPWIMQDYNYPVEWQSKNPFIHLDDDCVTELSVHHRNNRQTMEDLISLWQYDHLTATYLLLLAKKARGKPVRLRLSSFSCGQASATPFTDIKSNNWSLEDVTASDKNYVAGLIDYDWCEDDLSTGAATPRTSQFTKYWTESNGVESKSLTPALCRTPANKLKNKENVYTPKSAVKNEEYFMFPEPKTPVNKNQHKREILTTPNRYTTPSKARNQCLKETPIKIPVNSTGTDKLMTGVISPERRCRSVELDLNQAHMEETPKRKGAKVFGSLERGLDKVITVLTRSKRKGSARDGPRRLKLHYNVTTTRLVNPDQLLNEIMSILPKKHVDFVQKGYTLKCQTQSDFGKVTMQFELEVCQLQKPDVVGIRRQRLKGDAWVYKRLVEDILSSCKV
observed.property: IC50 (µM)
Numbers only, in µM.

Query block: Need IC50, item Nc1ccc2nc(/C=C/c3ccc(C(F)(F)F)cc3)nc(NCCCN3CCOCC3)c2c1
Result block: 3.5

----------
assayed.target: Receptor tyrosine-protein kinase erbB-4 (Homo sapiens, UniProt Q15303)
Sequence (Q15303 whole entry): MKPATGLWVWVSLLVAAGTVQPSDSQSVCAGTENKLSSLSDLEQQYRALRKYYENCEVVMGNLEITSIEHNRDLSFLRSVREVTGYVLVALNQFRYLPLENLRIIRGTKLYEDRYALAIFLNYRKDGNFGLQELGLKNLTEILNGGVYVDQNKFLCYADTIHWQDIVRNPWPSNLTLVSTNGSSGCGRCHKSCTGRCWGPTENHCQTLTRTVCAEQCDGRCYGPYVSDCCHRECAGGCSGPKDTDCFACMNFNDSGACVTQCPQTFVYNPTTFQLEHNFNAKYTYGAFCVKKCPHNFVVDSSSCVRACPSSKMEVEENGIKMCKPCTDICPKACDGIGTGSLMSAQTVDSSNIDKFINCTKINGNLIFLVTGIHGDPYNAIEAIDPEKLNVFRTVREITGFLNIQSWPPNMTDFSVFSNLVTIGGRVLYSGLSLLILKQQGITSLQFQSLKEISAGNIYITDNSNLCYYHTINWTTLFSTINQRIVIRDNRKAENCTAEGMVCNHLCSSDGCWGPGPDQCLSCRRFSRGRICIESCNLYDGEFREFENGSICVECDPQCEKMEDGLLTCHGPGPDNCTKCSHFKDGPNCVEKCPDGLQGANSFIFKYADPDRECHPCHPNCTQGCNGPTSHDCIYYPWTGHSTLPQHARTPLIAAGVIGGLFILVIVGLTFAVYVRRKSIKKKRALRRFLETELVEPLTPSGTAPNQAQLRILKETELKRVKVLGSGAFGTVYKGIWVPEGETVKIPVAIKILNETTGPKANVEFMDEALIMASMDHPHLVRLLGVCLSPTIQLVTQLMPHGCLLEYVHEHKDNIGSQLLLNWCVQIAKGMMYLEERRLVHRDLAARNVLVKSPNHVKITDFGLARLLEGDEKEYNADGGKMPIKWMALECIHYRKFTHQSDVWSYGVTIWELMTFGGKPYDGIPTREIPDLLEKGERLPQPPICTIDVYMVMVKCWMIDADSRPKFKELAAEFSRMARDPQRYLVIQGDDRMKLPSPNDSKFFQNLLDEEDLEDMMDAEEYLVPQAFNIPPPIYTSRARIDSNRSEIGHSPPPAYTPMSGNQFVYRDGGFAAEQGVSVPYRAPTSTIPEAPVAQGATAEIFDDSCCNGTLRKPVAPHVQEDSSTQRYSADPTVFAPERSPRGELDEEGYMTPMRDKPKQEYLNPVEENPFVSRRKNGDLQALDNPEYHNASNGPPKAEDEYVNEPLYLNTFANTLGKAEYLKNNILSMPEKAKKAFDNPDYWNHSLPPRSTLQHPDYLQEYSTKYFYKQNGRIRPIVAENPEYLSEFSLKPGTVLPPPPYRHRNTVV
method.notes: Inhibition of ERBB4/HER4 (unknown origin)
observed.property: IC50 (µM)
Numbers only, in µM.

Query block: Give recorded IC50 with Receptor tyrosine-protein kinase erbB-4 (Homo sapiens, UniProt Q15303) for the following compound: CCN(CC)CCCC(C)Nc1nc(/C=C/c2c(Cl)cc(Cl)cc2Cl)nc2ccc(N)cc12 (stereo unspecified)
Result block: 23.9

----------
assayed.target: UniProt P41240
Sequence (P41240 whole entry): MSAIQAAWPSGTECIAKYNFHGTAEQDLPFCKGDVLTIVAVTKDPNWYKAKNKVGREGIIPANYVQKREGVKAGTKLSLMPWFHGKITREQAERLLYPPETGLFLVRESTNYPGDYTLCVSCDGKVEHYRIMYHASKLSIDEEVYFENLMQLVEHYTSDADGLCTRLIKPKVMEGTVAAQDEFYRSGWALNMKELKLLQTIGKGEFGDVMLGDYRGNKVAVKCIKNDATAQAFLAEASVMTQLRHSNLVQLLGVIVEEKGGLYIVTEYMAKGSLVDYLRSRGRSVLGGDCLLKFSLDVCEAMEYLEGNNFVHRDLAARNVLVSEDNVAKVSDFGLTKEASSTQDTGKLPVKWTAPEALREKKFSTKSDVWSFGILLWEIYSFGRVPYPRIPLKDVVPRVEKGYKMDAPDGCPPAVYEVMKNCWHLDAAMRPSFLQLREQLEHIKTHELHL
pIC50: −log10 of the molar value.
observed.property: pIC50

Query block: Need pIC50, item CCN(CC)CCCC(C)Nc1nc(/C=C/c2c(Cl)cc(Cl)cc2Cl)nc2ccc(N)cc12 (stereo unspecified)
Result block: < 4.00

----------
assayed.target: Cytoplasmic tyrosine-protein kinase BMX (Homo sapiens)
Sequence (P51813 whole entry): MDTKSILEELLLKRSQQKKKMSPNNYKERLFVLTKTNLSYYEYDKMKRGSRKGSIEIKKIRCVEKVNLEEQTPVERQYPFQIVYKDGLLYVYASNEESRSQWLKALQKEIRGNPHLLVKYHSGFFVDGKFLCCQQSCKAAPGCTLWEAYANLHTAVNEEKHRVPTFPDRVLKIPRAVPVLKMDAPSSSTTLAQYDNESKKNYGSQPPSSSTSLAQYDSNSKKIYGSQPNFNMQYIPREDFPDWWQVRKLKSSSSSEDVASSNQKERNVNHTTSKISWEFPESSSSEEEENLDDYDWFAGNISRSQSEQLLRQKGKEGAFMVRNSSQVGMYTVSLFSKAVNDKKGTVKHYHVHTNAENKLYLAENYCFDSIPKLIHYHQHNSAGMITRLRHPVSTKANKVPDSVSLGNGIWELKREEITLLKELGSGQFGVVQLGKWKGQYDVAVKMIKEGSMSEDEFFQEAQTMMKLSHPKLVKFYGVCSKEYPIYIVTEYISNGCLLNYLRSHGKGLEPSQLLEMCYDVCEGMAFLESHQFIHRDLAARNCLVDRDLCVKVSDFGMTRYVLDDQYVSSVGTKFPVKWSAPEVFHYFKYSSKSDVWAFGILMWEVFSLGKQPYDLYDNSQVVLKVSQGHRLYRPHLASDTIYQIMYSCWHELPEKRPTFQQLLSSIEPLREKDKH
method.notes: Inhibition of BMX/ETK (unknown origin)
observed.property: IC50
Please report the result as a number followed by the unit.

Query block: Form entry - test system: Cytoplasmic tyrosine-protein kinase BMX (Homo sapiens); read-out: IC50; compound: CCN(CC)CCCC(C)Nc1nc(/C=C/c2c(Cl)cc(Cl)cc2Cl)nc2ccc(N)cc12 (stereo unspecified)
Result block: 1900 nM

----------
assayed.target: Calcium/calmodulin-dependent protein kinase type 1 (Homo sapiens)
Sequence (Q14012 whole entry): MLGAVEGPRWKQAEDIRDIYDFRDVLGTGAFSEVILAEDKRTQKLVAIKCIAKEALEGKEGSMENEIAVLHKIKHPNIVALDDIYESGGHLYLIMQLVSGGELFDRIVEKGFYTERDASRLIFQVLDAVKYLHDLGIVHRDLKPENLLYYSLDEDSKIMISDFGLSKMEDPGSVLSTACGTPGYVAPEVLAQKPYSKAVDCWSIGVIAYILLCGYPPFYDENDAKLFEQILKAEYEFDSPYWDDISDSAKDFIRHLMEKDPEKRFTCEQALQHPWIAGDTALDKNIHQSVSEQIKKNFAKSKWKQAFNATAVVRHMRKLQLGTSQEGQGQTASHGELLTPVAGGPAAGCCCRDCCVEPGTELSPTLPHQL
method.notes: Inhibition of CaMK1alpha (unknown origin)
observed.property: IC50

Query block: Requested read-out: IC50. Entry: CCN(CC)CCCC(C)Nc1nc(/C=C/c2c(Cl)cc(Cl)cc2Cl)nc2ccc(N)cc12 (stereo unspecified)
Result block: 6.9 µM

----------
assayed.target: Calcium/calmodulin-dependent protein kinase type II subunit gamma (Homo sapiens)
Sequence (Q13555 whole entry): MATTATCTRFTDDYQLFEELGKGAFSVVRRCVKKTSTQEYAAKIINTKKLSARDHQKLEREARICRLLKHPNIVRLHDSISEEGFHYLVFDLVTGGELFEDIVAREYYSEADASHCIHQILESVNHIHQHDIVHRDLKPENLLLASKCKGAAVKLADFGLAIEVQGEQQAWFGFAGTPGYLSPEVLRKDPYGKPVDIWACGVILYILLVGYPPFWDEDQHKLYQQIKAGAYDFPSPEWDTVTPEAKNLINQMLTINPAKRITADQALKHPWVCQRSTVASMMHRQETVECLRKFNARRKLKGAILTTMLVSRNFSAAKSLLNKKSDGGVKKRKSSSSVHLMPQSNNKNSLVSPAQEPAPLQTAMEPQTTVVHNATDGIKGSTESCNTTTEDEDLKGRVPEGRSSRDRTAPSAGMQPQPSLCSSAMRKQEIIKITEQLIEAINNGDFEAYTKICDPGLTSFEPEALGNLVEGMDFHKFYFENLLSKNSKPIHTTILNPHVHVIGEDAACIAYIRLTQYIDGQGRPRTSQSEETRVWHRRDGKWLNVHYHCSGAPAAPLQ
method.notes: Inhibition of CaMK2gamma (unknown origin)
observed.property: pIC50
Answers are plain numbers, as −log10 of the molar value.

Query block: Data request, read-out pIC50, for CCN(CC)CCCC(C)Nc1nc(/C=C/c2c(Cl)cc(Cl)cc2Cl)nc2ccc(N)cc12 (stereo unspecified)
Result block: 5.04

----------
assayed.target: Fibroblast growth factor receptor 1 (Homo sapiens)
Sequence (P11362 whole entry): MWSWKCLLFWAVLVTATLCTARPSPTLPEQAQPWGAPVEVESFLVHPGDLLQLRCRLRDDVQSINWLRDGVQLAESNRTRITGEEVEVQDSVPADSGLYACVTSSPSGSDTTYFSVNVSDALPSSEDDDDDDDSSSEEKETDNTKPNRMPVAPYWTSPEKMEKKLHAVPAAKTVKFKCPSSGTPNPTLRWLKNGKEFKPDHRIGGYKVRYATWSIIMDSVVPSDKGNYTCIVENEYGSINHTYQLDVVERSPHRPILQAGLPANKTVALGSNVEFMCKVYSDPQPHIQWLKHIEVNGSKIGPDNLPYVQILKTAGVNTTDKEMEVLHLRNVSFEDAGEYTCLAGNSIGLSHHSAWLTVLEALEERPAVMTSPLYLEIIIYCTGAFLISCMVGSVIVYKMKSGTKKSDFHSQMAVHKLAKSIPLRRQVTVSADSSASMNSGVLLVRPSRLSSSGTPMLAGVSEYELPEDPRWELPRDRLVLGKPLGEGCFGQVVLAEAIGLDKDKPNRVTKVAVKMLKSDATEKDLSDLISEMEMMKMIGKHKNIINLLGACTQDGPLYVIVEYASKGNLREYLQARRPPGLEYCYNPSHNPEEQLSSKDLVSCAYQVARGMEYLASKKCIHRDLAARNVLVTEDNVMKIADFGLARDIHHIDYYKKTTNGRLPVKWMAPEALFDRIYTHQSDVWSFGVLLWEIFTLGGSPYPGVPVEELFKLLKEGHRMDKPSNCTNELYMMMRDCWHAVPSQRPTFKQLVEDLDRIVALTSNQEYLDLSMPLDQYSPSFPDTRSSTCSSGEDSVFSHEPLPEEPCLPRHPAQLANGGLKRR
observed.property: IC50 (µM)
One number for each entry, in µM.

Query block: Looking for the measured IC50 of CCN(CC)CCCC(C)Nc1nc(/C=C/c2c(Cl)cc(Cl)cc2Cl)nc2ccc(N)cc12 (stereo unspecified) , can you help?
Result block: 9
